Please respond with reported IC50, reporter cell assay for every item in the list.
# System name: hLTBP1-proTGFβ1 as produced in the cell-based activation assay (human, UniProt P01137 30-390; Q14766 347-1721)
# Sequence (P01137 30-390 limits assumed, chain 1 of 2): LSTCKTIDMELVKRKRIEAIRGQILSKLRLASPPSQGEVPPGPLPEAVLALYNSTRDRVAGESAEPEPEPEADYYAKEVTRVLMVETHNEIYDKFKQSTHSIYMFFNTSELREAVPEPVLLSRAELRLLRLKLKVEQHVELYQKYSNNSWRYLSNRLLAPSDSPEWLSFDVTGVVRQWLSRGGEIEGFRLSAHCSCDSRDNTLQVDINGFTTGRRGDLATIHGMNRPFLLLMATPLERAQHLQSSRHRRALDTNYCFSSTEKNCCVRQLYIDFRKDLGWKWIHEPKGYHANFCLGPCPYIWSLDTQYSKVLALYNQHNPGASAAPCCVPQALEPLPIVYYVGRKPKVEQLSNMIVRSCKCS
# Sequence (Q14766 347-1721 limits assumed, chain 2 of 2): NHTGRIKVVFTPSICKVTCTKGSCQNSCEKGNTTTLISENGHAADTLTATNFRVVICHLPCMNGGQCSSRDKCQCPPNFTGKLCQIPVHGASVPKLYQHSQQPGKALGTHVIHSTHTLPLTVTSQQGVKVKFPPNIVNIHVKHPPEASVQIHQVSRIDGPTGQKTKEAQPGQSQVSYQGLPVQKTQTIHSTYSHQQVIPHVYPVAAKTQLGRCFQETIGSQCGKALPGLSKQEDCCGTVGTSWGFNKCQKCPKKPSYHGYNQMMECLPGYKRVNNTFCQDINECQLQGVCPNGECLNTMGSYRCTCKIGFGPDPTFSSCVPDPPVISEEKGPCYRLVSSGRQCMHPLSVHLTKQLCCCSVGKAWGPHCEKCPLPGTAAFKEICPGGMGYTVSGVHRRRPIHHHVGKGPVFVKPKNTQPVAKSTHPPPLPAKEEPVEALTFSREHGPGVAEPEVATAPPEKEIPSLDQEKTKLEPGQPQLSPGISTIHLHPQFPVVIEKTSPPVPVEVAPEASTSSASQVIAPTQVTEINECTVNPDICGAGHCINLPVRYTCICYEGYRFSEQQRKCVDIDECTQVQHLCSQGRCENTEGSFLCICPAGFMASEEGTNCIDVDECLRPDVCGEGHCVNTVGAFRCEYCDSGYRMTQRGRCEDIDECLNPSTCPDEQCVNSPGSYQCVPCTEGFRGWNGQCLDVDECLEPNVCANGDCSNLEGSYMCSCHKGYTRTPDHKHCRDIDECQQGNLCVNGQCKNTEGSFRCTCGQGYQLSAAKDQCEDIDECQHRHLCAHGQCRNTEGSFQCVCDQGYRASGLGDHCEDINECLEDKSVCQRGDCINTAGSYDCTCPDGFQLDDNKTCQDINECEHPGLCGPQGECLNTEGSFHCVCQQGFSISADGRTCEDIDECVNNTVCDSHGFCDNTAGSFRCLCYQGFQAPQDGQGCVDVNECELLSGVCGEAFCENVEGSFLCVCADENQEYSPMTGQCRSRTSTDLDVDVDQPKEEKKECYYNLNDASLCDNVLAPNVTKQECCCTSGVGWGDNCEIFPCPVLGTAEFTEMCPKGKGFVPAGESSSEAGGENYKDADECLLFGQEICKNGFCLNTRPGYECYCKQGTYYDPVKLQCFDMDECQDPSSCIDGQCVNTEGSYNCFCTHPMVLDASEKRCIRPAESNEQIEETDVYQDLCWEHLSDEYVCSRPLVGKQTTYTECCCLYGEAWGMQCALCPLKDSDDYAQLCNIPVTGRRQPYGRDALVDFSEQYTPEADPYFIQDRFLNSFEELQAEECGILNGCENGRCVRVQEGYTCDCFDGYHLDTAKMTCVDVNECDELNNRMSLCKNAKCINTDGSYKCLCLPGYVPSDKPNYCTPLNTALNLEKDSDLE
# Test: cell-based or functional assay
Report only the number, with the unit nM understood.

q: I am curious: what IC50, reporter cell assay value has been reported for Ab25 (antibody, V domains shown) VH: EVQLVESGGGLVQPGGSLRLSCAASGFTFGSFSMDWVRQAPGKGLEWVSYISPDASTIYYADSVKGRFTISRDNAKNSLYLQMNSLRAEDTAVYYCARGVLDYGDMLDPWGQGTLVTVSS VL: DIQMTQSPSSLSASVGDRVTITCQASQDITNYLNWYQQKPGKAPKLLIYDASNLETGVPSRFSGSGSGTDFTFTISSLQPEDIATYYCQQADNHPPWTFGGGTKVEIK ?
a: 6.08

q: Entry Ab29 (antibody, IgG4, V domains shown) VH: EVQLVESGGGLVQPGRSLRLSCAASGFTFSSFAMNWVRQAPGKGLEWVSYISPDASTIYYAGSVKGRFTISRDNAKNSLYLQMNSLRAEDTAVYYCVRAVLDYGDMLDPWGQGTLVTVSS VL: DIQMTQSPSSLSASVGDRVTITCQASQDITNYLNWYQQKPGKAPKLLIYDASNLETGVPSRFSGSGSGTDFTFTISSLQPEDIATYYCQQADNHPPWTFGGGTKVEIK has what IC50, reporter cell assay?
a: 0.471

q: IC50, reporter cell assay lookup needed for Ab19 (antibody, IgG4, V domains shown) VH: QVQLVESGGGVVQPGRSLRLSCAASGFTFSSFAMTWVRQAPGKGLEWVSAISGSGAATYFADSVKGRFTISRDNSKNTLYLQMNSLRAEDTAVYYCARVSSGHWDFDEWGQGTLVTVSS VL: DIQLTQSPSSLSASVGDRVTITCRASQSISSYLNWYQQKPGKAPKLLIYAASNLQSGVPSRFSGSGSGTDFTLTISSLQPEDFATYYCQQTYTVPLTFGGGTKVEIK , thanks.
a: 1.66

q: # lookup: IC50, reporter cell assay of Ab20 (antibody, IgG4, V domains shown) VH: EVQLLESGGGLVQPGGSLRLSCAASGFTFSAYAMTWVRQAPGKGLEWVSAISGSGGVTYYADSVKGRFTISRDNSKNTLYLQMNSLRAEDTAVYYCARVSSGHWDYDYWGQGTLVTVSS VL: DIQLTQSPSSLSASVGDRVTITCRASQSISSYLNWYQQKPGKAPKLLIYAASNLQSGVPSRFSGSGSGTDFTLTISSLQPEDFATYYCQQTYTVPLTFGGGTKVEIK
a: 1.85

q: Give its IC50, reporter cell assay value. Item: Ab23 (antibody, V domains shown) VH: EVQLVESGGGLVQPGGSLRLSCAASGFTFSSFSMNWVRQAPGKGLEWVSYISPSADTIYYADSVKGRFTISRDNAKNTLYLQMNSLRAEDTAVYYCARGVLDYGDMLDPWGQGTLVTVSS VL: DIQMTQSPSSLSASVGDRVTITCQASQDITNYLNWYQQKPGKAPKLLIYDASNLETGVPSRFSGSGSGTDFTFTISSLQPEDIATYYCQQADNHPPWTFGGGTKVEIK
a: 0.835
